molecular target: HLA-A0201 (Homo sapiens, UniProt P04439, D140Y/D185E/D98H/E176V/E277Q/G131W/G231S/I119V/I121R/I166T/I218V/L300P/L318F/N151K/N90K/P208A/P217A/Q86G/Q94H/R138H/R169H/T345S); construct: endogenous in cells; host or cells: T2 cell line (TAP-deficient); test: MHC stabilization assay on T2 cells; format: binding; conditions: T2 cells, 100 μg peptide, 16 h, W6/32 antibody, FACS
observed.property: ligation strength (binding to HLA-A0201)

STAPPAHGVT [STA10] = strongest binders
STAPPAHGV [STA9] = strongest binders
SAPDTRPAPG (fragment of MUC1; listed as Homo sapiens) [Peptide F1] = strongest binders

* * *

molecular target: human 20S immunoproteasomes (Homo sapiens, UniProt P28062+P28065+P40306); construct: purchased Immatics Biotechnologies (Tübingen, Germany); assay: In vitro proteolysis of MUC1 repeat peptides and glycopeptides by immunoproteasomes; assay type: biochemical; settings: digest by immunoproteasomes, HPLC and MALDI-MS
No end group written: not given here. O‑glycan = not defined here
Please go through the items and note down their NUMBER OF FRAGMENTS.
Numbers only.

(CVISAPDTRPAPGSTAPPAH)x5 [Peptide P1] = 105
AHGVTSAPESRPAPGSTAPPA [P4] (fragment of digested MUC1; listed as Homo sapiens) [Peptide P4] = 31

// moving on: another record for NUMBER OF FRAGMENTS
Input: Query the reported NUMBER OF FRAGMENTS for human 20S immunoproteasomes (Homo sapiens, UniProt P28062+P28065+P40306); item: AHGVTSAPESRPAPGSTAPPA [GP5] (AHGVT(O‑glycan)SAPESRPAPGSTAPPA; not fully specified; reading uncertain; also: glycan structure not given here; listed as Homo sapiens) [MUC1 glycopeptide, glycosylated threonine within the VTS motif]
Output: 46

* * *

Please go through the items and note down their NUMBER OF FRAGMENTS.
molecular target: human 20S immunoproteasomes (Homo sapiens, UniProt P28062+P28065+P40306); construct: purchased Immatics Biotechnologies (Tübingen, Germany); assay: In vitro proteolysis of MUC1 repeat peptides and glycopeptides by immunoproteasomes; assay type: biochemical; settings: digest by immunoproteasomes, HPLC and MALDI-MS
No end group written: not given here. O‑glycan = not defined here
Numbers only.

Guide cases for NUMBER OF FRAGMENTS, answers given:
AHGVTSAPESRPAPGSTAPPA [GP6] (AHGVTSAPES(O‑glycan)RPAPGSTAPPA; reading uncertain; also: glycan structure not given here; listed as Homo sapiens) [MUC1 glycopeptide, glycosylated within the ESR motif] = 46
HGVTSAPESRPAPGSTAPPA [GP7] = 61

Input: Query the reported NUMBER OF FRAGMENTS for human 20S immunoproteasomes (Homo sapiens, UniProt P28062+P28065+P40306); item: AHGVTSAPESRPAPGSTAPPA [GP8] (AHGVTS(O‑glycan)APESRPAPGSTAPPA; reading uncertain; also: glycan structure not given here; listed as Homo sapiens) [chemically synthesized MUC1 derived glycopeptide, glycosylation site not readable]
Output: 46

* * *

Please go through the items and note down their 8-11 mers (%).
target: human 20S immunoproteasomes (Homo sapiens, UniProt P28062+P28065+P40306); construct: purchased Immatics Biotechnologies (Tübingen, Germany); experiment: In vitro proteolysis of MUC1 repeat peptides and glycopeptides by immunoproteasomes; assay type: biochemical; settings: relative to total amount of digestion products of immunoproteasomal cleavage
No end group written: not given here. O‑glycan = not defined here
Numbers only, in %.

AHGVTSAPESRPAPGSTAPPA [P4] (fragment of digested MUC1; listed as Homo sapiens) [Peptide P4] = 50

Below is a list of substances. For each, state its recorded 8-11 mers (%).
1. (CVISAPDTRPAPGSTAPPAH)x5 [Peptide P1]
2. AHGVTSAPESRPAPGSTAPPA [GP6] (AHGVTSAPES(O‑glycan)RPAPGSTAPPA; reading uncertain; also: glycan structure not given here; listed as Homo sapiens) [MUC1 glycopeptide, glycosylated within the ESR motif]
3. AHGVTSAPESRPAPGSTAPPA [GP5] (AHGVT(O‑glycan)SAPESRPAPGSTAPPA; not fully specified; reading uncertain; also: glycan structure not given here; listed as Homo sapiens) [MUC1 glycopeptide, glycosylated threonine within the VTS motif]

Output:
1: 13; 2: 35; 3: 79

Below is a list of substances. For each, state its recorded 8-11 mers (%).
1. HGVTSAPESRPAPGSTAPPA [GP7]
2. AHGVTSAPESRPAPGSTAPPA [GP8] (AHGVTS(O‑glycan)APESRPAPGSTAPPA; reading uncertain; also: glycan structure not given here; listed as Homo sapiens) [chemically synthesized MUC1 derived glycopeptide, glycosylation site not readable]

Output:
[29, 35]
